Every entry's value here was drawn from PubChem BioAssay AID602229.

// values below are reported inhibition of corepressor binding
# TARGET_UNDER_TEST: Photoreceptor-specific nuclear receptor (Homo sapiens)
# ASSAY: NCOR release from NR2E3 in cells – cell-based, luminescence, CHO-S, Gal4-NCOR/VP16-NR2E3, primary screen (AID 602229);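 further: 0% = DMSO with NR2E3 transfected cells and 100% = cells lacking NR2E3 construct; higher means lower luciferase signal from less NR2E3 corepressor binding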
# EXPERIMENTAL_CONTEXT: CHO-S Gal4-NCOR/VP16-NR2E3 two-hybrid, luciferase; at 3.98 µM; active compounds read high
The campaign covered roughly 360,000 compounds. About 1,300 (0.36%) were called active. This excerpt belongs to a sample that is enriched for actives.
Write it as a number; the unit % goes unstated.

A selection of reference data follows.
[[record]]
smiles_repr = "COc1ccc(S(=O)(=O)Nc2ccc3oc(C)c(C(C)=O)c3c2)cc1"
output_unit = "%"
numeric_result = 60.2

[[record]]
smiles_repr = "COc1ccc(C(=O)OCC(=O)Nc2cc(C)on2)cc1F"
output_unit = "%"
numeric_result = 20.3

[[record]]
smiles_repr = "CC(C)(C)C(=O)COC(=O)c1cc(S(=O)(=O)N2CCCCC2)ccc1N1CCOCC1"
output_unit = "%"
numeric_result = -9.47

[[record]]
smiles_repr = "CCN(Cc1ccccc1)S(=O)(=O)c1cc2c3c(c1)CCN3C(=O)CC2"
output_unit = "%"
numeric_result = 13.4

[[record]]
smiles_repr = "CC1CCN(CCCn2c(SCC(=O)NC3CCCC3)nc3ccccc3c2=O)CC1"
output_unit = "%"
numeric_result = -14.7


Value of inhibition of corepressor binding reported for the compound "COc1ccc(NS(=O)(=O)c2ccc(Oc3c(C#N)cccc3C#N)cc2)cc1" is 86.5

Value of inhibition of corepressor binding reported for the compound "Cc1ccc(S(=O)(=O)N2[C@@H](c3ccc(Br)cc3)C(C(=O)O)=C[C@H]2CC2CCCC2)cc1" is 77.4

* * *

# TARGET_UNDER_TEST: Photoreceptor-specific nuclear receptor (Homo sapiens) (UniProt Q9Y5X4)
# Sequence (Q9Y5X4 whole entry, looked up, the tested form may be a part): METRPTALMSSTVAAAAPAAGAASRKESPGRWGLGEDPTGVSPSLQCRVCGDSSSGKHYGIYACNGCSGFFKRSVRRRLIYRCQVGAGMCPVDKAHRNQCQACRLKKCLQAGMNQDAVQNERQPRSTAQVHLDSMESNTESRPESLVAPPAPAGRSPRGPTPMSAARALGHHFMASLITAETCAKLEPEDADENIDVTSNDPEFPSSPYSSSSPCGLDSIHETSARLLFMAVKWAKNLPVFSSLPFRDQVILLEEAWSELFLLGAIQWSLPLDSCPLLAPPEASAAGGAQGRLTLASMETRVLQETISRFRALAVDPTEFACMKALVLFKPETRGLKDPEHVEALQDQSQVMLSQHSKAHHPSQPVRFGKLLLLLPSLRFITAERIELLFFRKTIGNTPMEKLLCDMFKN
# ASSAY: NCOR release from NR2E3 in cells – cell-based, luminescence, CHO-S, Gal4-NCOR/VP16-NR2E3, primary screen (AID 602229);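 further: 0% = DMSO with NR2E3 transfected cells and 100% = cells lacking NR2E3 construct; higher means lower luciferase signal from less NR2E3 corepressor binding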
# EXPERIMENTAL_CONTEXT: CHO-S Gal4-NCOR/VP16-NR2E3 two-hybrid, luciferase; at 3.98 µM; active compounds read high
The campaign covered roughly 360,000 compounds. About 1,300 (0.36%) were called active. The full list was thinned out, with actives kept by preference.
EXPERIMENTAL_READOUT: inhibition of corepressor binding (%)
Write it as a number; the unit % goes unstated.

[[record]]
compound = "CCc1ccc(CNC(=O)CCc2nc(-c3cccs3)no2)cc1"
numeric_result = -4.34

[[record]]
compound = "CCCCn1nnnc1C(c1ccccc1)N1CCN(c2ccccc2OC)CC1 (stereo not drawn)"
numeric_result = -15.1

[[record]]
compound = "O=C(Nc1ccc(Br)cc1)c1cc(S(=O)(=O)Nc2ccccn2)ccc1Cl"
numeric_result = 0.47

[[record]]
compound = "Cc1ccc(F)cc1NC(=O)CSCc1c(C)noc1C"
numeric_result = -16.1

[[record]]
compound = "O=C(C1CCC1)N1CCc2cc(S(=O)(=O)NCc3cccnc3)ccc21"
numeric_result = 10

[[record]]
compound = "CCOC(=O)C1CCCN(C(=O)c2cc(-c3cccs3)oc2C)CC1 (stereo not drawn)"
numeric_result = -1.14

[[record]]
compound = "COC(=O)[C@]12CCCCC=C1N(Cc1ccco1)C(=O)[C@H](CC(=O)NCCCCc1ccccc1)C2"
numeric_result = -23.9

[[record]]
compound = "Cc1ccc(C)c(NC(=O)COC(=O)c2nn(C)c(=O)c3ccccc23)c1"
numeric_result = 8.19


Value of inhibition of corepressor binding reported for the compound "CC(C)(CNC(=O)c1ccc(Cl)c(S(=O)(=O)N2CCc3ccccc3C2)c1)N1CCOCC1" is -7.92

Value of inhibition of corepressor binding reported for the compound "CCCN(CC(=O)Nc1ccc(C(N)=O)cc1)CC(=O)Nc1ccccc1C" is 12.9

Value of inhibition of corepressor binding reported for the compound COc1ccc(C(C(=O)NCC2CCCO2)N(C(=O)Cn2nnc3ccccc32)c2ccc(NC(C)=O)cc2)cc1OC (stereo not drawn) is -35.2

Value of inhibition of corepressor binding reported for the compound COc1cccc(CNS(=O)(=O)c2ccc3c(c2)CC(C)N3C(=O)C2CCC2)c1 (stereo not drawn) is 87.5

Value of inhibition of corepressor binding reported for the compound "Oc1ccc(Br)cc1/C=N/Nc1ccccn1" is 87.1
